target: EGFR T790M L858R (Homo sapiens, UniProt P00533, L858R/T790M); test: EGFR T790M L858R biochemical assay (Caliper mobility shift); conditions: 5 μM ATP; apparent Ki (Morrison fit) converted by Cheng-Prusoff, Km of ATP 1.3 μM
measured.parameter: Ki (nM)

Below, 5 compounds whose answers are already recorded.
# lookup: CC(C)NC(=O)C1CN(c2nn(C(C)C)c3cc(Nc4ccnc(-c5cnn(S(=O)(=O)C6CC6)c5)n4)ncc23)C1 [Example 169] on EGFR T790M L858R (Homo sapiens, UniProt P00533, L858R/T790M), Ki = 1.4

# lookup: CC(C)n1nc(NCCS(C)(=N)=O)c2cnc(Nc3ccnc(-c4cnn(S(=O)(=O)C5CC5)c4)n3)cc21 (centres unmarked) [Example 125] on EGFR T790M L858R (Homo sapiens, UniProt P00533, L858R/T790M), Ki = 1.1

# lookup: CC(C#N)Nc1nn(C(C)C)c2cc(Nc3ccnc(N4CC[C@H](O)[C@H](F)C4)n3)ncc12 (relative stereo) [Example 179] on EGFR T790M L858R (Homo sapiens, UniProt P00533, L858R/T790M), Ki = 5.6

# lookup: CC(C)n1nc(N2CC(C(C)(C)C#N)C2)c2cnc(Nc3ccnc(-c4cnn(S(=O)(=O)C5CC5)c4)n3)cc21 [Example 153] on EGFR T790M L858R (Homo sapiens, UniProt P00533, L858R/T790M), Ki = 2.1

# lookup: CC(C)n1nc(N2CC(O)(C(F)(F)F)C2)c2cnc(Nc3ccnc(N4CC[C@H](O)[C@H](F)C4)n3)cc21 (racemic) [Example 129] on EGFR T790M L858R (Homo sapiens, UniProt P00533, L858R/T790M), Ki = 2.7

[P] COC1CCN(c2nccc(Nc3cc4c(cn3)c(N3CC5(COC5)C3)nn4C(C)C)n2)CC1 [Example 2]
[Q] CC(C)n1nc(N2CC[C@@H](O)C2)c2cnc(Nc3ccnc(-c4cnn(S(=O)(=O)C5CC5)c4)n3)cc21 [Example 114]
Prompt line: Choose between P and Q : whose measured Ki value is numerically larger? Field: selected label. Fill in the label of the entry you choose.
Response line: P

* * *

target: EGFR T790M L858R (Homo sapiens, UniProt P00533, L858R/T790M); experiment: EGFR T790M L858R biochemical assay (Caliper mobility shift); details: 5 μM ATP; apparent Ki (Morrison fit) converted by Cheng-Prusoff, Km of ATP 1.3 μM
pKi: −log10 of the molar value.
measured.parameter: pKi

[P] CC(C)n1nc(N2CCOCC2)c2cnc(Nc3ccnc(N4CCC(O)C(F)C4)n3)cc21 (racemic)
[Q] CC(C)n1nc(N2CCOCC2)c2cnc(Nc3ccnc(-c4cnn(CC5CC5)c4)n3)cc21
Prompt line: Which has the smaller recorded pKi, P or Q ? Field: selected label. Fill in the label of the entry you choose.
Response line: Q

* * *

biological target: phosphor-EGFR in H1975(L585R/T790M) mutant EGFR expressing cells (Homo sapiens, UniProt P00533, L858R/T790M); assay: H1975 pEGFR MSD cellular assay; settings: NCI-H1975 cells, serum starved, 1 hour compound incubation, pEGFR Tyr1068 MSD; read-out: HI975 pEGFR EC50
Sequence (P00533 25-1210 T790M/L858R): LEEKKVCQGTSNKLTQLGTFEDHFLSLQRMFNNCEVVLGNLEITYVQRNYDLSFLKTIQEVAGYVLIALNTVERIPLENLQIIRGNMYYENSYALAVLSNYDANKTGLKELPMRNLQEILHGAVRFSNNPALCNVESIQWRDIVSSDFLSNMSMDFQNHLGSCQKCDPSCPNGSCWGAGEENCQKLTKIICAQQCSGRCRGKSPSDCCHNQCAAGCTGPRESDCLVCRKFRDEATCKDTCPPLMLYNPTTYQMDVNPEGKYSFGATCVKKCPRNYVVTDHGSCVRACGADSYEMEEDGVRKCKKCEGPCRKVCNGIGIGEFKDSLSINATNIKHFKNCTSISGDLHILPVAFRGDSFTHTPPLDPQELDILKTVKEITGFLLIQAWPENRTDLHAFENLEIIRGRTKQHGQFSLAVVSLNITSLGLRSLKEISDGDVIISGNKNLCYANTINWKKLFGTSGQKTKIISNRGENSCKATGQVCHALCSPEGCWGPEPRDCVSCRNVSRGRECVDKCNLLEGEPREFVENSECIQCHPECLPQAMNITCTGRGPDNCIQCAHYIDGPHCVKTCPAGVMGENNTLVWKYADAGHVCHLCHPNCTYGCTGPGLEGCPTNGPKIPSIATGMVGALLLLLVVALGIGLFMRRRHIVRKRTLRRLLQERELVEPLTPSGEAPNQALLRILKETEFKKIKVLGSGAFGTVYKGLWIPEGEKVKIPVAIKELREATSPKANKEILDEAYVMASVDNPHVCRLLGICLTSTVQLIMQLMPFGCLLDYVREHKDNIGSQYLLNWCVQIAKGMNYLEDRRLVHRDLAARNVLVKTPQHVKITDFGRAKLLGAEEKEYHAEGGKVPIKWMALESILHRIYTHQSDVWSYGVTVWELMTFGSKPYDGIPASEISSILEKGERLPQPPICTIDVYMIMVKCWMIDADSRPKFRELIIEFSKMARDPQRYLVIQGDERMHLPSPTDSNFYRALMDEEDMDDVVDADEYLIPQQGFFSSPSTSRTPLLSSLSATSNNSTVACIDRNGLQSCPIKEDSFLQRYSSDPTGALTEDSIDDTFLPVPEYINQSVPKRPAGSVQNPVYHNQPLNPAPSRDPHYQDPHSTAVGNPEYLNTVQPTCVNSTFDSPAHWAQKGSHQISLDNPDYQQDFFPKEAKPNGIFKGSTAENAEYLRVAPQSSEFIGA
pEC50: −log10 of the molar value.
measured.parameter: pEC50

Lookup result for CC(C)n1nc(N2CC(N)CC2=O)c2cnc(Nc3ccnc(N4CCC(C)(O)CC4)n3)cc21 (stereo not shown) ; measured pEC50: 5.71

Lookup result for CC(C)n1nc(N2CCS(=O)(=O)CC2)c2cnc(Nc3ccnc(-c4cnn(S(=O)(=O)C5CC5)c4)n3)cc21 ; measured pEC50: 6.22

Lookup result for COC1CCN(c2nccc(Nc3cc4c(cn3)c(N)nn4C[C@H]3CC[C@H](N)CC3)n2)CC1 ; measured pEC50: 5.69

[1] CC(C)n1nc(N2CC3(CN(CC(F)(F)F)C3)C2)c2cnc(Nc3ccnc(-c4cnn(S(=O)(=O)C5CC5)c4)n3)cc21
[2] CC(C)n1nc(N2CC[C@H](N)C2=O)c2cnc(Nc3ccnc(N4CCC(C)(O)CC4)n3)cc21
Prompt line: Which has the smaller recorded pEC50, 1 or 2 ? Field: selected label. Fill in the label of the entry you choose.
Response line: 2

[1] CC(C)n1nc(N2CCC3(CNC(=O)C3)C2)c2cnc(Nc3ccnc(-c4cnn(S(=O)(=O)C5CC5)c4)n3)cc21 (stereo not shown)
[2] CC(Nc1nn(C(C)C)c2cc(Nc3ccnc(-c4cnn(S(=O)(=O)C5CC5)c4)n3)ncc12)C(N)=O (stereo not shown)
Prompt line: Which has the smaller recorded pEC50, 1 or 2 ? Field: selected label. Fill in the label of the entry you choose.
Response line: 2
(2: 6.10, 1: 6.66)
